System: SK-OV-3
Assay: NCI 60 five-dose screen SK-OV-3
Format: cell-based
Settings: Homo sapiens, five-dose
Below, each entry is listed with its recorded IC50.
Report as a plain number; the unit µM is understood.

Reference set (4 entries):
{"Compound": "OC1CCC(Cn2c(C(F)(F)F)cc3c(Cl)ncnc32)CC1 (centres unmarked)", "IC50 (µM)": 67.6}
{"Compound": "FC(F)(F)c1cc2c(Cl)ncnc2n1CCC1CCOCC1", "IC50 (µM)": 33.1}
{"Compound": "FC(F)(F)c1cc2c(Cl)ncnc2n1CCN1CCOCC1", "IC50 (µM)": 100}
{"Compound": "FC(F)(F)CN1CCN(CCn2c(C(F)(F)F)cc3c(Cl)ncnc32)CC1", "IC50 (µM)": 38.9}

Read the next record carefully.
Incoming: Fill in the recorded IC50 for this compound, with SK-OV-3 as test system: FC(F)(F)c1cc2c(Cl)ncnc2n1CCN1CCCCC1
Outgoing: 100

---

System: RXF 393
Test: NCI 60 five-dose screen RXF 393
Assay type: cell-based
Conditions: Homo sapiens, five-dose
Readout type: IC (TGI)

{"Compound": "FC(F)(F)c1cc2c(Cl)ncnc2n1CCN1CCOCC1", "Readout type": "IC (TGI)", "Meas value": "40.7 µM"}
{"Compound": "FC(F)(F)CN1CCN(CCn2c(C(F)(F)F)cc3c(Cl)ncnc32)CC1", "Readout type": "IC (TGI)", "Meas value": "28.2 µM"}
{"Compound": "FC(F)(F)c1cc2c(Cl)ncnc2n1CCC1CCOCC1", "Readout type": "IC (TGI)", "Meas value": "21.9 µM"}
{"Compound": "OC1CCC(Cn2c(C(F)(F)F)cc3c(Cl)ncnc32)CC1 (centres unmarked)", "Readout type": "IC (TGI)", "Meas value": "34.7 µM"}

Incoming: Request the reported IC (TGI) associated with FC(F)(F)c1cc2c(Cl)ncnc2n1CCN1CCCCC1
Outgoing: 40.7 µM

---

Tested on: OVCAR-8
Assay: NCI 60 five-dose screen OVCAR-8
Assay type: cell-based
Conditions: Homo sapiens, five-dose
Binarize IC (TGI) at 7 µM; below is fulfilled, at or above is not fulfilled.

{"Compound": "FC(F)(F)c1cc2c(Cl)ncnc2n1CCC1CCOCC1", "Qualitative label": "not fulfilled"}
{"Compound": "OC1CCC(Cn2c(C(F)(F)F)cc3c(Cl)ncnc32)CC1 (centres unmarked)", "Qualitative label": "fulfilled"}
{"Compound": "FC(F)(F)c1cc2c(Cl)ncnc2n1CCN1CCCCC1", "Qualitative label": "not fulfilled"}
{"Compound": "FC(F)(F)CN1CCN(CCn2c(C(F)(F)F)cc3c(Cl)ncnc32)CC1", "Qualitative label": "not fulfilled"}

Now look at this one.
Incoming: Criterion: IC (TGI) strictly below 7 µM. Is it met by FC(F)(F)c1cc2c(Cl)ncnc2n1CCN1CCOCC1 ?
Outgoing: not fulfilled

---

Tested on: COLO 205
Experiment: NCI 60 five-dose screen COLO 205
Type: cell-based
Settings: Homo sapiens, five-dose
Recorded GI50 for the following compounds
// units = µM; emit number, no label

{"Compound": "OC1CCC(Cn2c(C(F)(F)F)cc3c(Cl)ncnc32)CC1 (centres unmarked) [NUCC-0226689]", "GI50, µM": 24.5}
{"Compound": "FC(F)(F)c1cc2c(Cl)ncnc2n1CCN1CCOCC1 [NUCC-0226680]", "GI50, µM": 26.3}
{"Compound": "FC(F)(F)c1cc2c(Cl)ncnc2n1CCN1CCCCC1 [NUCC-0226679]", "GI50, µM": 52.5}

Incoming: Quick one: GI50 for FC(F)(F)c1cc2c(Cl)ncnc2n1CCC1CCOCC1 [NUCC-0226674] ?
Outgoing: 16.2

Incoming: # GI50 lookup, item FC(F)(F)CN1CCN(CCn2c(C(F)(F)F)cc3c(Cl)ncnc32)CC1 [NUCC-0226683]
Outgoing: 18.6

---

Tested on: HCT-116
Test: NCI 60 five-dose screen HCT-116
Assay type: cell-based
Details: Homo sapiens, five-dose
# maps each entry to its IC50
The response must be a number in µM with no trailing unit.

{"Compound": "FC(F)(F)c1cc2c(Cl)ncnc2n1CCN1CCOCC1", "Meas value": 5.62}
{"Compound": "FC(F)(F)CN1CCN(CCn2c(C(F)(F)F)cc3c(Cl)ncnc32)CC1", "Meas value": 3.72}
{"Compound": "OC1CCC(Cn2c(C(F)(F)F)cc3c(Cl)ncnc32)CC1 (centres unmarked)", "Meas value": 4.17}

Incoming: Value lookup for IC50; key = FC(F)(F)c1cc2c(Cl)ncnc2n1CCN1CCCCC1
Outgoing: 6.03

Incoming: Find the recorded IC50 belonging to FC(F)(F)c1cc2c(Cl)ncnc2n1CCC1CCOCC1 and report it.
Outgoing: 3.24

---

Test system: NCI-H460
Test: NCI 60 five-dose screen NCI-H460
Assay type: cell-based
Conditions: Homo sapiens, five-dose, read-out: LC50 (the source's name) (converted)
Each record here notes measured CC50.
Lab book: enter the figure in µM, no units written.

The examples below pair each entry with its known result.
{"Molecule": "FC(F)(F)CN1CCN(CCn2c(C(F)(F)F)cc3c(Cl)ncnc32)CC1", "Readout type": "CC50", "Meas value": 30.9}
{"Molecule": "FC(F)(F)c1cc2c(Cl)ncnc2n1CCC1CCOCC1", "Readout type": "CC50", "Meas value": 22.4}

In the following, a different molecule is considered.
Incoming: Item: OC1CCC(Cn2c(C(F)(F)F)cc3c(Cl)ncnc32)CC1 (centres unmarked) Test system: NCI-H460 Read-out: CC50 Value: ?
Outgoing: 53.7

---

Test system: CCRF-CEM
Assay: NCI 60 five-dose screen CCRF-CEM
Format: cell-based
Conditions: Homo sapiens, five-dose
Readout type: log10 GI50 (log10 of the value in µM)
Response schema: value (number) is log10 of GI50 in units of µM.

Reference set (4 entries):
{"Molecule": "FC(F)(F)c1cc2c(Cl)ncnc2n1CCN1CCCCC1", "Meas value": 1.04}
{"Molecule": "OC1CCC(Cn2c(C(F)(F)F)cc3c(Cl)ncnc32)CC1 (centres unmarked)", "Meas value": 0.75}
{"Molecule": "FC(F)(F)c1cc2c(Cl)ncnc2n1CCN1CCOCC1", "Meas value": 1.22}
{"Molecule": "FC(F)(F)CN1CCN(CCn2c(C(F)(F)F)cc3c(Cl)ncnc32)CC1", "Meas value": 0.64}

Please turn your attention to the following entry.
Incoming: // returns reported log10 GI50 for input FC(F)(F)c1cc2c(Cl)ncnc2n1CCC1CCOCC1
Outgoing: 0.15

---

# reported IC50; entries follow
Test system: U251
Test: NCI 60 five-dose screen U251
Format: cell-based
Details: Homo sapiens, U-251
State the answer as a number, implicitly in µM.

{"Structure smiles string": "Fc1ccc(N2CC(Cn3c(C(F)(F)F)cc4c(Cl)ncnc43)C2)c(F)c1", "Measurement units": "µM", "IC50": 3.24}
{"Structure smiles string": "O=c1ccc(Cn2c(C(F)(F)F)cc3c(Cl)ncnc32)c[nH]1", "Measurement units": "µM", "IC50": 33.1}

For the next question, use this compound.
Incoming: Param item = COc1cc(Cn2c(C(F)(F)F)cc3c(Cl)ncnc32)ccn1 ; retrieve measured IC50.
Outgoing: 26.9

---

Below, each of the molecules is paired with its reported IC50 value.
Tested on: HL-60(TB)
Assay: NCI 60 five-dose screen HL-60(TB)
Assay type: cell-based
Settings: Homo sapiens
Field: numeric (µM). Do not append units.

Previously resolved entries follow.
{"Structure smiles string": "Fc1ccc(N2CC(Cn3c(C(F)(F)F)cc4c(Cl)ncnc43)C2)c(F)c1", "IC50, µM": 3.89}
{"Structure smiles string": "O=c1ccc(Cn2c(C(F)(F)F)cc3c(Cl)ncnc32)c[nH]1", "IC50, µM": 3.63}

# evaluate next
Incoming: Recorded IC50 of COc1cc(Cn2c(C(F)(F)F)cc3c(Cl)ncnc32)ccn1 , please.
Outgoing: 3.39

---

Tested on: MDA-MB-231/ATCC
Assay: NCI 60 five-dose screen MDA-MB-231/ATCC
Type: cell-based
Conditions: Homo sapiens, five-dose
GI50 less than 4 µM is Condition met; GI50 greater than or equal to 4 µM is Condition not met.

Look over these answered cases.
{"Compound": "OC1CCC(Cn2c(C(F)(F)F)cc3c(Cl)ncnc32)CC1 (centres unmarked)", "Qualitative label": "Condition not met"}
{"Compound": "FC(F)(F)CN1CCN(CCn2c(C(F)(F)F)cc3c(Cl)ncnc32)CC1", "Qualitative label": "Condition met"}
{"Compound": "FC(F)(F)c1cc2c(Cl)ncnc2n1CCN1CCCCC1", "Qualitative label": "Condition not met"}

Would you kindly look at the next entry?
Incoming: Does FC(F)(F)c1cc2c(Cl)ncnc2n1CCN1CCOCC1 have GI50 strictly under 4 µM?
Outgoing: Condition not met

meta.source: patent US20240109903A1
